test system: Bacillus subtilis DB104 (SP-AmyQ fusion secretion); experiment: AmyQ secretion efficiency, weighted average sort bin (1 = best secretion, 10 = worst) (bin number (weighted average, 1-10)); higher = lower secretion efficiency
// reported AmyQ secretion efficiency per item
Provide a numeric answer; units are not to be included.

Sample answers from the record:
MRPVFPLILSAVLFLSCFFGARQTEASASSD | 1.96
MKKWMITIAMLILAGIALFVFISPVKSHKT | 6.53
MLKKTILAAFILVGSTLGAFSFSSDASAKHV | 2.16
MLKKKWMTRGLAGCLAAGGFSYNAFATEN | 6.77
MRGKSAVLLSLIMLIAGFLISFSFQK | 9.36

Q) What value of AmyQ secretion efficiency has been recorded for this entry: MKSKGSIMACLILFSFTITTFINTETHSAFSN
A) 7.73

Q) What value of AmyQ secretion efficiency has been recorded for this entry: MMKKGLLAGALTATVLFGTCKDAEAASQ
A) 1.66

Q) What value of AmyQ secretion efficiency has been recorded for this entry: MLTKRLLTIYIMLLGLIAWFPGAAQAKRK
A) 6.07

Q) What value of AmyQ secretion efficiency has been recorded for this entry: MRKKRVITCVMAASLTLGSLLAAAIATAKED
A) 3.82

Q) What value of AmyQ secretion efficiency has been recorded for this entry: MKRRKTAYLLLGILCSAAVFLIGAPSRALGAEV
A) 2.77

Q) What value of AmyQ secretion efficiency has been recorded for this entry: MTMLRKIIGWILLLCIIDDEAFTVIASGKEV
A) 5.2

Q) What value of AmyQ secretion efficiency has been recorded for this entry: MKKRLIGFLVLVPALIMSGITLIELNKK
A) 6.99

Q) What value of AmyQ secretion efficiency has been recorded for this entry: MFGMSTISLLIIFLLASAVLAKPIEAHTV
A) 2.54

Q) What value of AmyQ secretion efficiency has been recorded for this entry: MKRLCLWFTVFSLFLVLLPGKALGKKR
A) 2.36

Q) What value of AmyQ secretion efficiency has been recorded for this entry: MTMLRKKTGWILLLCIIPLFAFTVIASGKEV
A) 3.88

Q) What value of AmyQ secretion efficiency has been recorded for this entry: MFKFKKNFLVGLSAALMSIEDEEDDASAAST
A) 6.33

Q) What value of AmyQ secretion efficiency has been recorded for this entry: MRKRKILLSSALSLGMLVSAAPVLATSS
A) 2.04

Q) What value of AmyQ secretion efficiency has been recorded for this entry: MNFKKTVVSALSISALALSVSGVASGHEI
A) 4.67

Q) What value of AmyQ secretion efficiency has been recorded for this entry: MKRCKRRRLIVCSLAAILLLIPSVSFAADS
A) 3.97

Q) What value of AmyQ secretion efficiency has been recorded for this entry: MKKVMLATALFLGLTPANAADL
A) 8.14

Q) What value of AmyQ secretion efficiency has been recorded for this entry: MKRKKKRLCVMMLLFSAIASFPVSAQAKDQ
A) 3.18

Q) What value of AmyQ secretion efficiency has been recorded for this entry: MKKKQVMLALTAAAGLGLTALHSAPAAKIAPL
A) 6.05
